- System: Heart
- testMethodNotes: Biodistribution in heart of B16F0 tumor bearing C57BL/6J mouse at 0.37-0.74 MBq, iv after 1 hr
- Assay type: ADME, organism-based
- experimentalParameters: in vivo
Decide using Drug uptake: a value greater than or equal to 1 % ID/g is y, a smaller one is n.

| smilesRepr | groupLabel |
| --- | --- |
| CCN(CC)CCNC(=O)c1cc([123I])c(NC(C)=O)cc1OC | n |
| O=C(NC1CCN(CCO)CC1)c1ccc([123I])cc1 | y |
| O=C(NC1CCN(CCF)CC1)c1ccc(I)cc1 | y |

Kindly consider the entry below.
Asked: Determine whether measured Drug uptake meets or exceeds 1 % ID/g for `CCCN(CCC)CCCCNC(=O)c1cc([123I])c(NC(C)=O)cc1OC`
Given back: n

---

- testMethodNotes: Biodistribution in melanoma of B16F0 tumor bearing C57BL/6J mouse at 0.37-0.74 MBq, iv after 24 hrs
- Assay type: ADME, organism-based, B16-F0
- experimentalParameters: in vivo
I'd appreciate it if you marked entries Satisfied when Drug uptake is lower than 5 % ID/g and Not satisfied when it is not.

| smilesRepr | groupLabel |
| --- | --- |
| CCCCNCCCCNC(=O)c1cc([123I])c(NC(C)=O)cc1OC | Satisfied |
| CCCCN(C)CCCCNC(=O)c1cc([123I])c(NC(C)=O)cc1OC | Not satisfied |
| O=C(NC1CCN(CCF)CC1)c1ccc(I)cc1 | Not satisfied |
| CCN(CC)CCNC(=O)c1cc([123I])c(NS(C)(=O)=O)cc1OC | Satisfied |
| O=C(NC1CCN(CCO)CC1)c1ccc([123I])cc1 | Not satisfied |

Asked: In the record for `COc1cc(NC(C)=O)c([123I])cc1C(=O)NCCCCN(C)C(C)C` , is Drug uptake less than 5 % ID/g?
Given back: Satisfied

Asked: Given `CCN(CC)CCNC(=O)c1cc([123I])c(NC(C)=O)cc1OC` , is recorded Drug uptake strictly lower than 5 % ID/g?
Given back: Not satisfied

---

Reported Drug uptake values for the following compounds.
- Tested on: Kidney
- testMethodNotes: Biodistribution in kidney of B16F0 tumor bearing C57BL/6J mouse at 0.37-0.74 MBq, iv after 6 hrs
- Type: ADME, organism-based
- experimentalParameters: in vivo
Be sure to follow the number with its unit.

Consider the worked cases shown below.
| smilesRepr | Drug uptake |
| --- | --- |
| CCCN(CCC)CCCCNC(=O)c1cc([123I])c(NC(C)=O)cc1OC | 1 % ID/g |
| O=C(NC1CCN(CCO)CC1)c1ccc([123I])cc1 | 3.2 % ID/g |

Asked: Which Drug uptake is reported for this compound? `CCN(CC)CCNC(=O)c1cc([123I])c(NC(C)=O)cc1OC`
Given back: 0.44 % ID/g

Asked: I'd like to know its Drug uptake. The compound in question is `CCCCNCCCCNC(=O)c1cc([123I])c(NC(C)=O)cc1OC`
Given back: 0.46 % ID/g

Asked: What value of Drug uptake has been recorded for this entry: `CCN(CC)CCNC(=O)c1cc([123I])c(NS(=O)(=O)c2ccc(C)cc2)cc1OC`
Given back: 0.36 % ID/g

Asked: Query: Drug uptake; subject: `CCN(CC)CCNC(=O)c1ccccc1[123I]`
Given back: 0.76 % ID/g

Asked: What measured Drug uptake goes with `CCCCN(C)CCCCNC(=O)c1cc([123I])c(NC(C)=O)cc1OC` ?
Given back: 1.2 % ID/g
